- study_target: human GPR40 (Homo sapiens)
- experiment_summary: FLIPR intracellular calcium response in HEK-293 cells transiently expressing GPR40
- Assay type: cell-based
- Design: expressed in transfected cells; host or cells: HEK-293 (transient)
- experimental_conditions: Mean pEC50, FLIPR, GPR40 stimulation; third experiment
value_type: EC50 (µM)
Only the number, expressed in µM, is required.

Item: CC/C=C\C/C=C\C/C=C\CCCCCCCC(=O)O Test system: human GPR40 (Homo sapiens) Read-out: EC50 Value: ?
7.59

====

- study_target: human GPR40 (Homo sapiens)
- experiment_summary: FLIPR intracellular calcium response in HEK-293 cells transiently expressing GPR40
- Format: cell-based
- Parameters: expressed in transfected cells; host or cells: HEK-293 (transient)
- experimental_conditions: Mean pEC50 of 3 expts, FLIPR, GPR40 stimulation; overall mean (n = 1 or 2 where stated)
- Text: The Fluorometric Imaging Plate Reader (FLIPR™, Molecular Devices, UK) measures intracellular fluorescense in multi-well microplates. Where a GPCR couples to a calcium signalling pathway, the FLIPR system can be used with cells expressing the G-protein coupled receptor and containing calcium-sensitive fluorescent dyes, to monitor the intracellular calcium flux that occurs after activation of the G-coupled receptor. See, e.g., Kirk et al., J. Biomolecular Screening, 1:75 (1996). […]
Assign classes using reported EC50 values and the ranges one: < 10 µM; two: ≥ 10 µM and < 30 µM; three: ≥ 30 µM, please.

Field: class (EC50) — entry: CCCCCCCC(=O)O [Caprylic acid]
three

What about this compound? CCCCCCCCCCCCCCC(=O)O [Pentadeconoic acid]
one

Another compound to check: CC/C=C\C/C=C\C/C=C\CCCCCCCC(=O)O [Linolenic acid]
two

Again, but for CCCCC/C=C\C/C=C\C/C=C\C/C=C\CCCC(=O)O [Arachidonic acid]
two

Consider next the compound CCCCCCCCCCC(=O)O [Undecanoic acid] in the same way.
two

Same question, CCC=CCC=CCC=CCC=CCC=CC/C=C\CCC(=O)O [cis-4,7,10,13,16,19-Docosahexaenoic acid] this time
one

Request: CCCCCCCCCC(=O)O [Capric acid]
two

Queued: CCCCCCCCCCCCCCCC(=O)O [Palmitic acid]
one

Now consider CCCCCC/C=C\CCCCCCCC(=O)O [Palmitoleic acid] .
two

Another compound: CCCCCCC(=O)O [Heptanoic acid]
three

Continuing:
Exercise: read the entry CCCCCCCCCCCC(=O)O [Lauric acid] and state which class it falls under.
two

====

- study_target: human GPR40 (Homo sapiens)
- experiment_summary: FLIPR intracellular calcium response in HEK-293 cells transiently expressing GPR40
- Format: cell-based
- Set-up: expressed in transfected cells; host or cells: HEK-293 (transient)
- experimental_conditions: FLIPR, GPR40 stimulation; first of up to 3 experiments; read-out: Mean pEC50 (converted)
value_type: EC50
A bare number is not enough; add the unit after it.

Consider the following illustrative entries.
EC50 lookup needed for CCCCCCCCCCCCCCC(=O)O , thanks.
10.7 µM

And CCCCCCCCCCCCCCCCC(=O)O ?
13.8 µM

Please give the result for CCCCCCC(=O)O too.
46.8 µM

Entry to check: CCC=CCC=CCC=CCC=CCC=CC/C=C\CCC(=O)O [cis-4,7,10,13,16,19-Docosahexaenoic acid]
6.61 µM

Please answer likewise for CCCCC/C=C\C/C=C\C/C=C\C/C=C\CCCC(=O)O
18.2 µM

More entries:
Find the recorded EC50 belonging to CCCCCCCCCCCCCCCC(=O)O and report it.
8.32 µM

Quick one: CCCCCCCCCCC(=O)O
25.1 µM

// repeat for CCCCCCCCCCCCCCCCCCC(=O)O and report
26.3 µM

And what about the compound CCCCCCCCCC(=O)O ?
18.2 µM

Would you kindly repeat that for CCCCCC/C=C\CCCCCCCC(=O)O ?
15.1 µM

Could you do the same for CCCCCCCCCCCCCCCCCCCCC(=O)O , please?
35.5 µM

Another compound: CCCCCCCCCCCCCCCCCC(=O)O
20 µM

Entry CCCCCCCCCCCC(=O)O please
17.8 µM

====

The following molecules are listed with their measured EC50 values.
- study_target: human GPR40 (Homo sapiens, UniProt O14842)
- Sequence (O14842 whole entry): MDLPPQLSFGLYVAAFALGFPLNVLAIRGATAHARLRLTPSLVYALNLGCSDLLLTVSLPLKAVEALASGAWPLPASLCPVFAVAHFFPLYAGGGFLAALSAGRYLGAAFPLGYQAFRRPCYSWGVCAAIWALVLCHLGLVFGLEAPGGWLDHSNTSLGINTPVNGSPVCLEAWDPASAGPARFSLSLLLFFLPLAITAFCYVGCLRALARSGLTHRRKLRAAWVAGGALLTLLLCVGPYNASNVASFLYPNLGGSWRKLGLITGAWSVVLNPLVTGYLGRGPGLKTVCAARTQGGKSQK
- experiment_summary: FLIPR intracellular calcium response in HEK-293 cells transiently expressing GPR40
- Format: cell-based
- Set-up: expressed in transfected cells; host or cells: HEK-293 (transient)
- experimental_conditions: Mean pEC50, FLIPR, GPR40 stimulation; first of up to 3 experiments
Number in µM, nothing else.

Consider the worked cases shown below.
Need EC50 of CC/C=C\C/C=C\C/C=C\CCCCCCCC(=O)O [Linolenic acid] , thanks.
11.7

Queued: CCCCCCCCC(=O)O [Nonanoic acid]
69.2

***
EC50 for CCCCCCCC(=O)O [Caprylic acid] ?
56.2

Further, for CCCCCCCCCCCCCCCCCCCCCC(=O)O [Behenic acid] ?
51.3

Would you kindly repeat that for CCCCC/C=C\C/C=C\CCCCCCCC(=O)O [Linoleic acid] ?
16.6

====

- study_target: human GPR40 (Homo sapiens, UniProt O14842)
- experiment_summary: FLIPR intracellular calcium response in HEK-293 cells transiently expressing GPR40
- Type: cell-based
- Parameters: expressed in transfected cells; host or cells: HEK-293 (transient)
- experimental_conditions: FLIPR, GPR40 stimulation; Additional Fatty Acid Compounds; read-out: EC50 uM
value_type: EC50 (µM)
A number alone suffices; assume µM.

Observe how each entry below is paired with its result.
// EC50 lookup, key: CCCCC/C=C\C/C=C\C/C=C\CCCCCCC(=O)O [Dihomo-gamma-linolenic acid]
7.2

What do you have for CC/C=C\C/C=C\C/C=C\CCCCCCCCCCCC(=O)O [Docosa-13Z,16Z,19Z-trienoic acid] ?
6.8

As a next step, examine the compound that follows.
Which EC50 value is on record for CC/C=C\C/C=C\C/C=C\C/C=C\C/C=C\CCCC(=O)O [Eicosa-5Z,8Z,11Z,14Z,17Z-pentaenoic acid] ?
6.8

====

- study_target: human GPR40 (Homo sapiens, UniProt O14842)
- experiment_summary: FLIPR intracellular calcium response in HEK-293 cells transiently expressing GPR40
- Type: cell-based
- Set-up: expressed in transfected cells; host or cells: HEK-293 (transient)
- experimental_conditions: Mean pEC50 of 3 expts, FLIPR, GPR40 stimulation; overall mean (n = 1 or 2 where stated)
value_type: pEC50
Scale: pEC50 equals -log10([C]), with [C] in mol/L.

Find the measured pEC50: item CCCCCCCCCCCCCCCCC(=O)O , target or system human GPR40 (Homo sapiens, UniProt O14842).
4.99

====

- study_target: human GPR40 (Homo sapiens)
- experiment_summary: FLIPR intracellular calcium response in HEK-293 cells transiently expressing GPR40
- Assay type: cell-based
- Set-up: expressed in transfected cells; host or cells: HEK-293 (transient)
- experimental_conditions: Mean pEC50 of 3 expts, FLIPR, GPR40 stimulation; overall mean (n = 1 or 2 where stated)
value_type: EC50 (µM)
Provide only the numeric value, understood in µM.

Example entries and their recorded answers appear below.
Please tell me: EC50 of CCCCCCCCCCCCCCCCCCC(=O)O [Nonadecanoic acid] , system human GPR40 (Homo sapiens)?
30.2

Similarly, CCCCCCCCCCCCCCCCCC(=O)O [Stearic acid] ?
16.6

Please answer likewise for CCCCCCCCCCCCCCCCCCCCCC(=O)O [Behenic acid]
50.1

Now the same for CCCCCCCCC(=O)O [Nonanoic acid]
39.8

What do you get for CCCCCCCCCCCCCCCCCCCCC(=O)O [Heneicosanoic acid] ?
32.4

// next item, EC50 requested
Notebook: pull reported EC50 for human GPR40 (Homo sapiens), entry CCCCC/C=C\C/C=C\CCCCCCCC(=O)O [Linoleic acid]
18.6

# credit: patent US7241579B2
